# Test protocol: TOR pathway RPL19A-GFP modulators, concentration series – cell-based, S. cerevisiae, flow cytometry, MLPCN hits, dose response (AID 2740)
# Setup conditions: S. cerevisiae RPL19A-GFP strain, flow cytometry fluorescence, 3 h; at 33 µM (top of the series)
Threshold rule: GFP fluorescence, lower = active (kMESF (background-subtracted)) greater than or equal to 40 is criterion met; below that, criterion not met.

Past entries and their recorded results:
[O-][n+]1cccc2c(Br)cc(Br)c(O)c21 = criterion met
O=C1CC(c2ccccc2)=NN1c1nc(-c2ccccc2)cs1 = criterion not met
O=C(NNC(=S)NC(=O)C12CC3CC(CC(C3)C1)C2)c1ccncc1 = criterion met

query: Kindly determine if GFP fluorescence, lower = active (kMESF (background-subtracted)) recorded for `O=C1C=CC(=O)N1N(c1ccccc1)c1ccccc1` is above or exactly 40.
result: criterion not met

query: Kindly determine if GFP fluorescence, lower = active (kMESF (background-subtracted)) recorded for `CCOC(=O)C1=C(O)c2ccccc2C(=O)/C1=C\c1ccc(C)cc1` is above or exactly 40.
result: criterion not met

query: Kindly determine if GFP fluorescence, lower = active (kMESF (background-subtracted)) recorded for `C=CCOc1ccccc1C(=O)/C=C1/C(=O)Nc2ccccc21` is above or exactly 40.
result: criterion met
